A collection of compounds and their measured inhibition at 0.1 µM
molecular target: KDR (VEGFR2) (Homo sapiens); construct: purchased Invitrogen; assay: In vitro kinase assay (Z′-LYTE); format: biochemical; settings: read-out: % of inhibition of the kinase compared to the control
Sequence (P35968 20-1356): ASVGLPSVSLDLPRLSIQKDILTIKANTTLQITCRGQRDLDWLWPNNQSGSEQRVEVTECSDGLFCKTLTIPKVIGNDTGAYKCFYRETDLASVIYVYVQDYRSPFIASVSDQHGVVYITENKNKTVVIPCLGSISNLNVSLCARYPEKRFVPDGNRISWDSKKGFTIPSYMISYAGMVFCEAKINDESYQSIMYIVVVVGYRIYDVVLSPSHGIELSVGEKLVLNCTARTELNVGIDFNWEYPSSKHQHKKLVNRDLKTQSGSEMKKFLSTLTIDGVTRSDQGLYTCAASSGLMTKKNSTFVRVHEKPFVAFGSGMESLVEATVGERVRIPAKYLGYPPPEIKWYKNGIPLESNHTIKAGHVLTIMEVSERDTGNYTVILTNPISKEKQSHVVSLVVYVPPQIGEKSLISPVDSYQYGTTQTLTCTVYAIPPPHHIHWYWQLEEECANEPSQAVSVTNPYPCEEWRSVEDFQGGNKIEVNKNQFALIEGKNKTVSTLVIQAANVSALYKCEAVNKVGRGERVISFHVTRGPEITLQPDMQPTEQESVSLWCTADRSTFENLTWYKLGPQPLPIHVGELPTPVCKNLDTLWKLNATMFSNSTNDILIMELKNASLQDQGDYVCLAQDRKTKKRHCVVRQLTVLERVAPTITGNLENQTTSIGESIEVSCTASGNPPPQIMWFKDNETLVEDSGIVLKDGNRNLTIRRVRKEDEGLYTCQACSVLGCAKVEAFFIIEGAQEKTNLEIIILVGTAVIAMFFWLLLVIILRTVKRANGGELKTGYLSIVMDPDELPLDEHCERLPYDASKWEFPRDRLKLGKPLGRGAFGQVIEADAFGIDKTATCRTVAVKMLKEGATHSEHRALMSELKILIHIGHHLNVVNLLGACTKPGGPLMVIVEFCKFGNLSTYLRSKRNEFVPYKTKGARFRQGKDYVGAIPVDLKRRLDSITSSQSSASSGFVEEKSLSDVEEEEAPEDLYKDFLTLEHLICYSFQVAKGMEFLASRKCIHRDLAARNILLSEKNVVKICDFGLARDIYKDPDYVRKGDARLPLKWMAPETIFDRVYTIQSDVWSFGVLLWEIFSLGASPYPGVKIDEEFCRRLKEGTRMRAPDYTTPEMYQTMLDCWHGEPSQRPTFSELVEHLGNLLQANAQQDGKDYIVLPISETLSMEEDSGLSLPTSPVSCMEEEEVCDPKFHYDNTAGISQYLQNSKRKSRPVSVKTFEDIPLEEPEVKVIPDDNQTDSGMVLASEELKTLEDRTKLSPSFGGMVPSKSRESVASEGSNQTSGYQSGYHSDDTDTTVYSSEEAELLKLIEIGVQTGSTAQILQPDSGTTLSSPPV

Some solved cases for reference:
INSERT INTO measurements (compound, observed_result) VALUES
  ('COC(=O)c1cc2cc(NCc3cc(NC(=O)C4CCC(C(F)(F)F)CC4)ccc3C)cnc2[nH]1 (stereo not drawn) [OR0612]', '< 50%'),
  ('COC(=O)c1cc2cc(NCc3cc(NC(=O)c4ccc(CNCCN5CCN(C)CC5)c(C(F)(F)F)c4)ccc3C)cnc2[nH]1 [OR0637]', '≥ 50%'),
  ('COC(=O)c1cc2cc(NCc3cc(NC(=O)Cc4cccc(C(F)(F)F)c4)ccc3C)cnc2[nH]1 [OR0601]', '< 50%'),
  ('COC(=O)c1cc2cc(NC(=O)c3cc(NC(=O)c4ccc(CN5CCN(C)CC5)c(C(F)(F)F)c4)ccc3C)cnc2[nH]1 [OR0744]', '≥ 50%'),
  ('COC(=O)c1cc2cc(NCc3cc(NC(=O)Nc4ccncc4)ccc3C)cnc2[nH]1 [OR0952]', '< 50%'),
  ('COC(=O)c1cc2cc(NCc3cc(NC(=O)c4ccnc(C)c4)ccc3C)cnc2[nH]1 [OR0868]', '< 50%'),
  ('COC(=O)c1cc2cc(NC(=O)c3cccc(CNC(=O)c4ccc(CN5CCN(C)CC5)c(C(F)(F)F)c4)c3)cnc2[nH]1 [OR0983]', '< 50%'),
  ('COC(=O)c1cc2cc(NCc3cc(NC(=O)c4ccc(O)c(C(F)(F)F)c4)ccc3C)cnc2[nH]1 [OR0605]', '< 50%');

Next up:
INPUT: Fill in the blank: the reported inhibition at 0.1 µM of COC(=O)c1cc2cc(NCc3cc(NC(=O)c4ccc(C)c(C(F)(F)F)c4)ccc3C)cnc2[nH]1 [OR0869] is ____.
OUTPUT: < 50%

Data credit: patent US9493455B2
